src = patent US20240173255A1

METHOD DESCRIPTION: Solubility of series A to E drugs in water and 10% Soluplus solution
Assay type: physicochemical
STUDY CONDITIONS: water
PARAMETER: Solubility in water

Lab book: Solubility in water of `O=c1c2ccccc2[se]n1CCCCCCn1[se]c2ccccc2c1=O` noted as 0.001 mg/mL

// Solubility in water lookup, compound = `O=c1c2ccccc2[se]n1CCCCCn1[se]c2ccccc2c1=O` , result: 0.001 mg/mL

Briefly, Solubility in water measured for `O=C(CCCCCn1[se]c2ccccc2c1=O)Oc1ccccc1` : <0.01 mg/mL

Kindly note the recorded Solubility in water for `O=c1c2cccc(F)c2[se]n1CCCCCn1[se]c2c(F)cccc2c1=O` , which is 0.001 mg/mL

get_value(item= `COc1ccc2[se]n(CCCCCCn3[se]c4ccc(OCCCN=[N+]=[N-])cc4c3=O)c(=O)c2c1` , readout=Solubility in water) returns <0.01 mg/mL

According to the records, this compound `COc1ccc2[se]n(CCCn3[se]c4ccc(O)cc4c3=O)c(=O)c2c1` displays Solubility in water of 0.015 mg/mL

Sure, the documented Solubility in water for `COc1ccc2[se]n(Cc3cccc(Cn4[se]c5ccc(OCCCN(C)C)cc5c4=O)c3)c(=O)c2c1` is <0.01 mg/mL

Field Solubility in water (entry `COc1ccc2[se]n(CCCCCn3[se]c4ccc(OCCCn5nnnc5C)cc4c3=O)c(=O)c2c1` ) reads <0.01 mg/mL

Solubility in water reported for this compound `COc1ccc2[se]n(CCCCCCCn3[se]c4ccc(OCCCN(C)C)cc4c3=O)c(=O)c2c1` : <0.01 mg/mL

// Solubility in water value for `COc1ccc2[se]n(CCCCCCCn3[se]c4ccc(OCCCN=[N+]=[N-])cc4c3=O)c(=O)c2c1` : <0.01 mg/mL

// sample `COc1ccc2[se]n(CCCCn3[se]c4ccc(OCCCn5nnnc5C)cc4c3=O)c(=O)c2c1` , its Solubility in water was <0.01 mg/mL

The compound listed as `COc1ccc2[se]n(CCCCCn3[se]c4ccc(OCCCN(C)C)cc4c3=O)c(=O)c2c1` shows Solubility in water equal to <0.01 mg/mL

// Solubility in water value for `COc1ccc2[se]n(CCCn3[se]c4ccc(OCCCn5nnnc5C)cc4c3=O)c(=O)c2c1` : <0.01 mg/mL

Data point: `COc1ccc2[se]n(Cc3cccc(Cn4[se]c5ccc(O)cc5c4=O)c3)c(=O)c2c1` ; Solubility in water = <0.01 mg/mL

Query `COc1ccc2[se]n(CCCCn3[se]c4ccc(OCCCN=[N+]=[N-])cc4c3=O)c(=O)c2c1` yields Solubility in water of <0.01 mg/mL

The recorded Solubility in water for entry `COc1ccc2[se]n(CCCCCn3[se]c4ccc(OCCCN=[N+]=[N-])cc4c3=O)c(=O)c2c1` equals <0.01 mg/mL

The recorded Solubility in water for `COc1ccc2[se]n(Cc3cccc(Cn4[se]c5ccc(OCCCn6nnnc6C)cc5c4=O)c3)c(=O)c2c1` is <0.01 mg/mL

Reported Solubility in water for `O=c1c2ccccc2[se]n1CCCCn1[se]c2ccccc2c1=O` was 0.001 mg/mL

get_value(item= `O=c1c2ccccc2[se]n1CCCn1[se]c2ccccc2c1=O` , readout=Solubility in water) returns 0.004 mg/mL

Value of measured Solubility in water for the entry `COc1ccc2[se]n(CCCCCn3[se]c4ccc(O)cc4c3=O)c(=O)c2c1` : 0.01 mg/mL

The compound identified as `O=c1c2cccc(F)c2[se]n1CCCCCCCn1[se]c2c(F)cccc2c1=O` registered its Solubility in water at 0.001 mg/mL

Form field Solubility in water, entry `COc1ccc2[se]n(CCCCCCCn3[se]c4ccc(O)cc4c3=O)c(=O)c2c1` : 0.01 mg/mL

Entry `O=c1c2ccccc2[se]n1CCCCCCCn1[se]c2ccccc2c1=O` — recorded Solubility in water = 0.001 mg/mL

Lab book: Solubility in water of `COc1ccc2[se]n(CCCCCCn3[se]c4ccc(O)cc4c3=O)c(=O)c2c1` noted as 0.01 mg/mL

// sample `COc1ccc2[se]n(CCCCCCn3[se]c4ccc(OCCCn5nnnc5C)cc4c3=O)c(=O)c2c1` , its Solubility in water was <0.01 mg/mL

Summary for this compound, `O=c1c2cccc(F)c2[se]n1CCCCCCn1[se]c2c(F)cccc2c1=O` : Solubility in water is 0.001 mg/mL

Memo: `O=c1c2cccc(F)c2[se]n1CCCCn1[se]c2c(F)cccc2c1=O` , reported Solubility in water: 0.002 mg/mL

Data point: `O=C(CCCCCn1[se]c2ccccc2c1=O)Nc1ccccc1` ; Solubility in water = <0.01 mg/mL

Recorded Solubility in water (compound `O=C(NCCCCCn1[se]c2ccccc2c1=O)c1ccccc1` ): <0.01 mg/mL

For this compound ( `COc1ccc2[se]n(CCCCn3[se]c4ccc(OCCCN(C)C)cc4c3=O)c(=O)c2c1` ), measured Solubility in water is <0.01 mg/mL

`COc1ccc2[se]n(Cc3cccc(Cn4[se]c5ccc(OCCCN=[N+]=[N-])cc5c4=O)c3)c(=O)c2c1` yielded Solubility in water of <0.01 mg/mL

Entry `COc1ccc2[se]n(CCCCCCCn3[se]c4ccc(OCCCn5nnnc5C)cc4c3=O)c(=O)c2c1` , Solubility in water reported as <0.01 mg/mL

GET /value?item= `COc1ccc2[se]n(CCCCCCn3[se]c4ccc(OCCCN(C)C)cc4c3=O)c(=O)c2c1` &field=Solubility in water returns <0.01 mg/mL

For record `COc1ccc2[se]n(CCCn3[se]c4ccc(OCCCN(C)C)cc4c3=O)c(=O)c2c1` the listed Solubility in water is <0.01 mg/mL

* * *

METHOD DESCRIPTION: Solubilities of ethaselen and compounds of Examples 1 to 5 in water, DMSO and Soluplus solutions
Type: physicochemical
STUDY CONDITIONS: water; read-out: Solubility in Water
PARAMETER: Solubility

Record summary for O=c1c2ccccc2[se]n1CCn1[se]c2ccccc2c1=O [Ethaselen, ethaselen] : reported Solubility = 2 to 3 µg/mL

* * *

Provide the recorded Solubility in 10% Soluplus for the entries that follow.
METHOD DESCRIPTION: Solubility of series A to E drugs in water and 10% Soluplus solution
Assay type: physicochemical
STUDY CONDITIONS: 10% Soluplus solution

GET /value?item= O=c1c2cccc(F)c2[se]n1CCCCCCCn1[se]c2c(F)cccc2c1=O [CPD10] &field=Solubility in 10% Soluplus returns 600 µg/mL

So, COc1ccc2[se]n(CCCCCCCn3[se]c4ccc(OCCCn5nnnc5C)cc4c3=O)c(=O)c2c1 [CPD30] ? Its Solubility in 10% Soluplus was >1000 µg/mL

Measured Solubility in 10% Soluplus, O=C(CCCCCn1[se]c2ccccc2c1=O)Nc1ccccc1 [CPD37] : >1000 µg/mL

Value of measured Solubility in 10% Soluplus for the entry COc1ccc2[se]n(Cc3cccc(Cn4[se]c5ccc(OCCCn6nnnc6C)cc5c4=O)c3)c(=O)c2c1 [CPD34] : >1000 µg/mL

The value of Solubility in 10% Soluplus measured for the compound COc1ccc2[se]n(CCCCn3[se]c4ccc(OCCCn5nnnc5C)cc4c3=O)c(=O)c2c1 [CPD27] turned out to be >1000 µg/mL

Briefly, Solubility in 10% Soluplus measured for COc1ccc2[se]n(CCCCn3[se]c4ccc(OCCCN=[N+]=[N-])cc4c3=O)c(=O)c2c1 [CPD17] : >1000 µg/mL

In plain terms, O=c1c2ccccc2[se]n1CCCCCCCn1[se]c2ccccc2c1=O [CPD5] has a documented Solubility in 10% Soluplus of 500 µg/mL

compound COc1ccc2[se]n(Cc3cccc(Cn4[se]c5ccc(OCCCN(C)C)cc5c4=O)c3)c(=O)c2c1 [CPD33] , Solubility in 10% Soluplus observed: >1000 µg/mL

* * *

Assignment: determine reported Solubility in 10% Soluplus for the given compounds.
METHOD DESCRIPTION: Solubility of series A to E drugs in water and 10% Soluplus solution
Format: physicochemical
STUDY CONDITIONS: 10% Soluplus solution

Note to self: Solubility in 10% Soluplus recorded for `COc1ccc2[se]n(CCCn3[se]c4ccc(OCCCN(C)C)cc4c3=O)c(=O)c2c1` was >1000 µg/mL

Lab note: measured Solubility in 10% Soluplus of `COc1ccc2[se]n(CCCCCn3[se]c4ccc(O)cc4c3=O)c(=O)c2c1` was >1000 µg/mL

Notebook: `COc1ccc2[se]n(CCCCn3[se]c4ccc(OCCCN(C)C)cc4c3=O)c(=O)c2c1` , Solubility in 10% Soluplus read as >1000 µg/mL

Memo: `COc1ccc2[se]n(CCCCCCn3[se]c4ccc(OCCCN=[N+]=[N-])cc4c3=O)c(=O)c2c1` , reported Solubility in 10% Soluplus: >1000 µg/mL

get_value(item= `O=C(CCCCCn1[se]c2ccccc2c1=O)Oc1ccccc1` , readout=Solubility in 10% Soluplus) returns >1000 µg/mL

Kindly note the recorded Solubility in 10% Soluplus for `COc1ccc2[se]n(CCCCCCn3[se]c4ccc(O)cc4c3=O)c(=O)c2c1` , which is >1000 µg/mL

Record `O=c1c2cccc(F)c2[se]n1CCCCCCn1[se]c2c(F)cccc2c1=O` . Reported Solubility in 10% Soluplus: 800 µg/mL

For `COc1ccc2[se]n(CCCCCCCn3[se]c4ccc(O)cc4c3=O)c(=O)c2c1` the compound record lists Solubility in 10% Soluplus as >1000 µg/mL

// sample `COc1ccc2[se]n(CCCCCn3[se]c4ccc(OCCCn5nnnc5C)cc4c3=O)c(=O)c2c1` , its Solubility in 10% Soluplus was >1000 µg/mL

So, `O=c1c2ccccc2[se]n1CCCCCCn1[se]c2ccccc2c1=O` ? Its Solubility in 10% Soluplus was 500 µg/mL

Just so you know, measured Solubility in 10% Soluplus for `COc1ccc2[se]n(CCCCCn3[se]c4ccc(OCCCN(C)C)cc4c3=O)c(=O)c2c1` came out at >1000 µg/mL

compound `COc1ccc2[se]n(CCCCCCCn3[se]c4ccc(OCCCN(C)C)cc4c3=O)c(=O)c2c1` , Solubility in 10% Soluplus observed: >1000 µg/mL

For `COc1ccc2[se]n(CCCn3[se]c4ccc(OCCCn5nnnc5C)cc4c3=O)c(=O)c2c1` the compound record lists Solubility in 10% Soluplus as >1000 µg/mL

// field: Solubility in 10% Soluplus; key: `O=c1c2ccccc2[se]n1CCCn1[se]c2ccccc2c1=O` ; value = 200 µg/mL

Reported Solubility in 10% Soluplus ( `COc1ccc2[se]n(CCCCCCn3[se]c4ccc(OCCCN(C)C)cc4c3=O)c(=O)c2c1` ) = >1000 µg/mL

Just so you know, measured Solubility in 10% Soluplus for `COc1ccc2[se]n(CCCCCn3[se]c4ccc(OCCCN=[N+]=[N-])cc4c3=O)c(=O)c2c1` came out at >1000 µg/mL

// field: Solubility in 10% Soluplus; key: `COc1ccc2[se]n(CCCCCCn3[se]c4ccc(OCCCn5nnnc5C)cc4c3=O)c(=O)c2c1` ; value = >1000 µg/mL

Solubility in 10% Soluplus in this record for `O=c1c2ccccc2[se]n1CCCCn1[se]c2ccccc2c1=O` : 200 µg/mL

Please fill in: Solubility in 10% Soluplus reported for `COc1ccc2[se]n(Cc3cccc(Cn4[se]c5ccc(OCCCN=[N+]=[N-])cc5c4=O)c3)c(=O)c2c1` = >1000 µg/mL

Solubility in 10% Soluplus in this record for `O=C(NCCCCCn1[se]c2ccccc2c1=O)c1ccccc1` : >1000 µg/mL

Form: compound = `O=c1c2ccccc2[se]n1CCCCCn1[se]c2ccccc2c1=O` ; Solubility in 10% Soluplus = 300 µg/mL
